Read-out: Intercellular Adhesion Molecule 1 (ICAM1), ICAM1 (gene 3383)
Assay: BSK_KF3CT_ICAM1: BioMAP Diversity Plus: KF3CT Assay for Intercellular Adhesion Molecule 1 (ICAM1) Biomarker Activity (AID 2283067)
Details: primary human keratinocytes with fibroblasts; actives raise or lower the signal
Active and inactive are the calls of the source. How the source made its calls: active means hit-call score of the fitted dose curve at least 0.9, where 1 is the maximum; inactive means score below 0.9.
Classes used: active, inactive

# molecule, discrete.label
rows = [
    ("CC1COC(Cn2cncn2)(c2ccc(Oc3ccc(Cl)cc3)cc2Cl)O1 (configuration not stated)", "active"),
    ("COC(=O)c1ccccc1C(=O)OC", "inactive"),
    ("CS/C(C)=N/OC(=O)N(C)SN(C)C(=O)O/N=C(\\C)SC", "active"),
    ("Fc1ccc(Oc2ccnc3cc(Cl)cc(Cl)c23)cc1", "inactive"),
    ("OC(c1ccc(Cl)cc1)(c1cncnc1)c1ccccc1Cl (configuration not stated)", "inactive"),
    ("COC(=O)C=C(C)OP(=O)(OC)OC", "inactive"),
    ("C#CCOS(=O)OC1CCCCC1Oc1ccc(C(C)(C)C)cc1 (configuration not stated)", "inactive"),
    ("Oc1ccccc1-c1ccccc1", "inactive"),
    ("COc1nc(NC(C)C)nc(NC(C)C)n1", "inactive"),
    ("CC(Oc1ccc(Cl)cc1Cl)C(=O)O (configuration not stated)", "inactive"),
    ("CCOc1cc(Oc2ccc(C(F)(F)F)cc2Cl)ccc1[N+](=O)[O-]", "inactive"),
    ("CCOC(=O)C(Cl)Cc1cc(-n2nc(C)n(C(F)F)c2=O)c(F)cc1Cl (configuration not stated)", "inactive"),
]
